Molecular target: T1, RSV F protein (C-terminal truncated F protein secreted from a recombinant baculovirus) (respiratory syncytial virus (RSV), UniProt P03420 26-524)
T1 construct: also called F antigen; RSV F antigen
T1 sequence (P03420 26-109, chain 1 of 2): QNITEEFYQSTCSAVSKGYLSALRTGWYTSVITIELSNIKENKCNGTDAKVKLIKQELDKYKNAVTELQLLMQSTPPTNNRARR
T1 sequence (P03420 137-524, chain 2 of 2): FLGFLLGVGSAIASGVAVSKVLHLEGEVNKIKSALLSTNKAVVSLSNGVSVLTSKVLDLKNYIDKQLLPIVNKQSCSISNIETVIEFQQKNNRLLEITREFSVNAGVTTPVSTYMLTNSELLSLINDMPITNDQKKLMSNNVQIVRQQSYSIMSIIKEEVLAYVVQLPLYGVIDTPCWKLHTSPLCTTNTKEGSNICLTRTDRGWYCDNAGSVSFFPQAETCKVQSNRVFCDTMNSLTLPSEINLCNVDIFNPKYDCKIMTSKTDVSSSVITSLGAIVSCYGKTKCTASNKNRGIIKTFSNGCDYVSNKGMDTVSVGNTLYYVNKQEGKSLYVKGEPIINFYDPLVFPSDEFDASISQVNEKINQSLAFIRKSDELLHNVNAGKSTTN
Experiment: ELISA titration of antibody on 500 ng RSV F antigen; qualitative score from titration curves
parameter.measured: Ag Score (arbitrary score 0-4)
Express the result in arbitrary score 0-4 but write the number alone.

Query block: Can you share its Ag Score? I mean this binder: clone 9 (PFSW) (antibody, V domains shown, also called 9 (n = 2)) VH: QVTLRESGPALVKPTQTLTLTCTFSGFSLSTPGMSVGWIRQPPGKALEWLADIWWDDKKDYNPSLKSRLTISKDTSKNQVVLKVTNMDPADTATYYCARSMITNFYFDVWGQGTTVTVSS VL: DIQMTQSPSTLSASVGDRVTITCSASSSVGYMHWYQQKPGKAPKLLIYDTSKLASGVPSRFSGSGSGTEFTLTISSLQPDDFATYYCFQGSWYPFTFGGGTKVEIK
Result block: 3

Query block: Given clone 18 (SFFG) (antibody, V domains shown, also called 18 (n = 2)) VH: QVTLRESGPALVKPTQTLTLTCTFSGFSLSTSGMSVGWIRQPPGKALEWLADIWWDDKKDYNPSLKSRLTISKDTSKNQVVLKVTNMDPADTATYYCARSMITNFYFDVWGQGTTVTVSS VL: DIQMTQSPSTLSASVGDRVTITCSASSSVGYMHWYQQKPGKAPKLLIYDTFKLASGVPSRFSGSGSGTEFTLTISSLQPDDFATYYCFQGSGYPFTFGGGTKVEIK , state its recorded Ag Score.
Result block: 2
